assay procedure: A CellTox Green Cytotoxicity Assay to monitor cytotoxicity in HepG2 cells - 8 hour (AID 1224890); also: % is scaled to controls: 0 for no effect and ±100 for the full control effect; nearly all actives have a fitted effect of over 45% in size
stated conditions: CellTox Green fluorescence; series mostly up to 76.8 µM
Inconclusive results are not listed. Active and inactive are the calls of the source. Calls follow the shape of the dose curve; as a rule, active = well fitted activation curve with a large enough effect in the repeat runs; inconclusive = weak or mixed curves; inactive = flat fitted curve, though single readings scatter.
quantity: cytotoxicity increase

Before answering, review these 8 worked examples.
1. Nc1ccc2ccccc2c1S(=O)(=O)O = inactive
2. NC1=NCC2c3ccccc3Cc3ccccc3N12 (stereo not drawn) = inactive
3. CCCCCCC = inactive
4. CN1[C@@H]2CC[C@H]1CC(OC(=O)c1c[nH]c3ccccc13)C2 (stereo partly drawn) = inactive
5. Cc1ccc([N+](=O)[O-])c(N)c1 = inactive
6. CCCCCCCCOC(=O)CCCCCCCCC(=O)OCCCCCCCC = inactive
7. CCN(CC)CC1CCCCN1CC(=O)N1c2ccccc2C(=O)Nc2cccnc21 (stereo not drawn) = inactive
8. Cc1ccc(C)c(N)c1 = inactive

// for each compound below, give its cytotoxicity increase
1. Cc1nnc(SCC2=C(C(=O)O)N3C(=O)[C@@H](NC(=O)Cn4cnnn4)[C@H]3SC2)s1
2. CCCCCCCOC(=O)CCC
3. CCNCCO

inactive
inactive
inactive

Report cytotoxicity increase for every entry below.
1. Cc1c[nH]c(=S)[nH]c1=O
2. CN1CCC[C@@H]1Cc1c[nH]c2ccc(CCS(=O)(=O)c3ccccc3)cc12

1. inactive
2. inactive

----------
assay procedure: qHTS assay for identifying genotoxic compounds that show differential cytotoxicity against isogenic chicken DT40 cell lines with known DNA damage response pathways - Rad54/Ku70 mutant cell line (AID 743015); also: nearly all actives have a fitted effect of over 60% in size
stated conditions: DT40 Rad54/Ku70 mutant viability, CellTiter-Glo, 40 h; series mostly up to 66.8 µM
From the text: National Center for Advancing Translational Sciences [NCATS] NIH Chemical Genomics Center [NCGC] U.S. Environmental Protection Agency [EPA] National Institutes of Environmental Health Sciences [NIEHS] National Toxicology Program [NTP] U.S. Food and Drug Administration [FDA] DNA repair pathways play a critical role in cellular homeostasis by repairing DNA damage induced by endogenous processes and xenobiotics. […]
Results filed as inconclusive are left out. Activity calls are given as the source filed them. Calls come from the whole dose curve; as a rule, active = well fitted cell-killing curve with a large enough effect in the repeat runs; inconclusive = weak or mixed curves; inactive = no such curve, though single readings can be large or run the other way.
Response enum: active, inactive

Reference set (6 entries):
1) O=C(O)CN(CCN(CC(=O)O)CC(=O)O)CCN(CC(=O)O)CC(=O)O = active
2) CC1(C)S[C@@H]2[C@H](NC(=O)C(C(=O)O)c3ccccc3)C(=O)N2[C@H]1C(=O)O (stereo partly specified) = inactive
3) C=O = inactive
4) Cc1nc(-c2ccccn2)ncc1C(=O)Nn1cc(C)c2cc(F)ccc21 = active
5) CCN[C@H]1CN(CCCOC)S(=O)(=O)c2sc(S(N)(=O)=O)cc21 = inactive
6) Cc1ccsc1C(=CCCN1CCC[C@@H](C(=O)O)C1)c1sccc1C = inactive

Status in this test for CCCCC(CC)COC(=O)COc1cc(Cl)c(Cl)cc1Cl (stereo unspecified) ?
inactive

# lookup: test call for CCN(CC)C(=O)N(CC)CC
inactive

Write down the call the test reported for this molecule. Item: CCCCCCOc1ccc(N)cc1
active

Give the logged outcome of this assay for the following molecule: OCCN(CCO)CCN(CCO)CCO
inactive

----------
assay procedure: qHTS assay to test for compound auto fluorescence at 535 nm (green) in HEK293 cell free culture (AID 720682); also: % is scaled to controls: 0 for no effect and ±100 for the full control effect
stated conditions: cell-free medium, green autofluorescence 485/535 nm, hits give high values; series mostly up to 91.3 µM
Excerpt: U.S. Tox21 Program National Center for Advancing Translational Sciences [NCATS] NIH Chemical Genomics Center [NCGC] U.S. Environmental Protection Agency [EPA] National Institutes of Environmental Health Sciences [NIEHS] National Toxicology Program [NTP] U.S. Food and Drug Administration [FDA] Tox21 Assay Overview: Compound auto fluorescence often interferes with screening of the compound library against various biological targets and signaling pathways. […] This assay includes the green fluorescence data. […]
Active and inactive are the calls of the source. The call rests on the fitted dose curve; in most records, active means well fitted curve in the direction sought with a large enough effect in the repeat runs; inconclusive means weak or mixed curves; inactive means flat fitted curve, though single readings scatter.
quantity: activity change

1. Cc1cc2nc(N)sc2cc1C = inactive
2. CCCCCCC = inactive
3. Clc1cccc(-c2cc(Cl)cc(Cl)c2)c1 = inactive
4. C1CSCCS1 = inactive
5. COc1ccc(Nc2ccc(OC)cc2)cc1 = inactive
6. CCCCNc1ccc(C(=O)OCCN(CC)CC)cc1 = inactive

Hey, quick one: what's activity change for each of these?
1. O=c1[nH]c(=O)n([C@H]2C[C@H](O)[C@@H](CO)O2)cc1C(F)(F)F
2. COC(=O)c1ccc(OC)cc1
3. CC(C)C(=O)OCC(C)(C)C(O)C(C)C (stereo not given)
4. CCOc1ccc2nc(N)sc2c1
5. CCN(CC)CC1CCCCN1CC(=O)N1c2ccccc2C(=O)Nc2cccnc21 (stereo not given)
6. COC(=O)N[C@H](C(=O)N[C@@H](Cc1ccccc1)[C@@H](O)CN(Cc1ccc(-c2ccccn2)cc1)NC(=O)[C@@H](NC(=O)OC)C(C)(C)C)C(C)(C)C

["inactive", "inactive", "inactive", "inactive", "inactive", "inactive"]

Each of the following entries comes with a recorded value; kindly state activity change for each.
1. C=CCCC=C
2. CC(C)C(=O)OC/C=C/c1ccccc1

inactive
inactive

Go through the list and state activity change for each entry.
1. CCN1CC(CCN2CCOCC2)C(c2ccccc2)(c2ccccc2)C1=O (stereo not given)
2. CC(C)CCCCCCc1ccc(OCCOCCO)cc1
3. CN1CCN(c2c(F)cc3c(=O)c(C(=O)O)cn4c3c2SCC4)CC1
4. CCC(=O)O[C@]1(C(=O)SCF)[C@H](C)C[C@H]2[C@@H]3C[C@H](F)C4=CC(=O)C=C[C@]4(C)[C@@]3(F)[C@@H](O)C[C@@]21C
5. CC1(C)O[C@@H]2C[C@H]3[C@@H]4CCC5=CC(=O)CC[C@]5(C)[C@@]4(F)[C@@H](O)C[C@]3(C)[C@]2(C(=O)CCl)O1
6. Cc1ccc(C(C)C)cc1O

inactive
inactive
inactive
0.0558% [at 18.6 µM] (inactive)
0.0954% [at 18.6 µM] (inactive)
inactive

Batch request: activity change per item, same order as input.
1. CN1C(=O)CC(c2ccccc2)C1=O (stereo not given)
2. CCOC(=O)CS
3. Cc1ccc([N+](=O)[O-])cc1Cl
4. COc1nc(C)nc(NC(=O)NS(=O)(=O)c2ccccc2OCCCl)n1
5. O=C(O[C@@H](C(=O)O)[C@@H](OC(=O)c1ccccc1)C(=O)O)c1ccccc1

["inactive", "inactive", "inactive", "inactive", "inactive"]

Attribution: PubChem BioAssay (Tox21)
